test: Half life in RARG2-/-gammac-/- Balb/c mouse at 5 mg/kg, iv administered as single dose by LC-MS/MS analysis; type: ADME, organism-based; settings: in vivo
MEASURED_PARAMETER: half-life
Reply with the number and its unit after it.

Inquiry: Quick check: half-life of COc1cc2c(NC3CCN(C4CC4)CC3)cc(-c3ccc(C)o3)nc2cc1OCCCN1CCCC1 ?
Reply text: 624 min

###

target: UniProtKB P26358; assay: Inhibition of human DNMT1 using polydeoxyinosine polydeoxycytosine DNA as substrate after 15 mins in presence of SAM by TR-FRET assay
MEASURED_PARAMETER: IC50 (nM)
State the answer as a number, implicitly in nM.

Inquiry: Quick check: IC50 of COc1cc2c(NC3CCN(C)CC3)cc(-c3ccc(C#N)o3)nc2cc1OCCCN1CCCC1 ?
Reply text: 1600

Inquiry: Thanks! And CCc1ccc(-c2cc(NC3CCN(C(C)C)CC3)c3cc(OC)c(OCCCN4CCCC4)cc3n2)o1 ?
Reply text: 284

Inquiry: Thanks! And COc1cc2c(NC3CCN(C(C)C)CC3)cc(C3CCCCC3)nc2cc1OCCCN1CCCC1 ?
Reply text: 619

Inquiry: Thanks! And COc1cc2c(NC3CCN(C)CC3)cc(-c3cc[nH]c(=O)c3)nc2cc1OCCCN1CCCC1 ?
Reply text: 1250

###

target: DNA (cytosine-5)-methyltransferase 1 (Homo sapiens); experiment: Inhibition of human DNMT1 using polydeoxyinosine polydeoxycytosine DNA as substrate after 15 mins in presence of SAM by TR-FRET assay
Sequence (P26358 whole entry): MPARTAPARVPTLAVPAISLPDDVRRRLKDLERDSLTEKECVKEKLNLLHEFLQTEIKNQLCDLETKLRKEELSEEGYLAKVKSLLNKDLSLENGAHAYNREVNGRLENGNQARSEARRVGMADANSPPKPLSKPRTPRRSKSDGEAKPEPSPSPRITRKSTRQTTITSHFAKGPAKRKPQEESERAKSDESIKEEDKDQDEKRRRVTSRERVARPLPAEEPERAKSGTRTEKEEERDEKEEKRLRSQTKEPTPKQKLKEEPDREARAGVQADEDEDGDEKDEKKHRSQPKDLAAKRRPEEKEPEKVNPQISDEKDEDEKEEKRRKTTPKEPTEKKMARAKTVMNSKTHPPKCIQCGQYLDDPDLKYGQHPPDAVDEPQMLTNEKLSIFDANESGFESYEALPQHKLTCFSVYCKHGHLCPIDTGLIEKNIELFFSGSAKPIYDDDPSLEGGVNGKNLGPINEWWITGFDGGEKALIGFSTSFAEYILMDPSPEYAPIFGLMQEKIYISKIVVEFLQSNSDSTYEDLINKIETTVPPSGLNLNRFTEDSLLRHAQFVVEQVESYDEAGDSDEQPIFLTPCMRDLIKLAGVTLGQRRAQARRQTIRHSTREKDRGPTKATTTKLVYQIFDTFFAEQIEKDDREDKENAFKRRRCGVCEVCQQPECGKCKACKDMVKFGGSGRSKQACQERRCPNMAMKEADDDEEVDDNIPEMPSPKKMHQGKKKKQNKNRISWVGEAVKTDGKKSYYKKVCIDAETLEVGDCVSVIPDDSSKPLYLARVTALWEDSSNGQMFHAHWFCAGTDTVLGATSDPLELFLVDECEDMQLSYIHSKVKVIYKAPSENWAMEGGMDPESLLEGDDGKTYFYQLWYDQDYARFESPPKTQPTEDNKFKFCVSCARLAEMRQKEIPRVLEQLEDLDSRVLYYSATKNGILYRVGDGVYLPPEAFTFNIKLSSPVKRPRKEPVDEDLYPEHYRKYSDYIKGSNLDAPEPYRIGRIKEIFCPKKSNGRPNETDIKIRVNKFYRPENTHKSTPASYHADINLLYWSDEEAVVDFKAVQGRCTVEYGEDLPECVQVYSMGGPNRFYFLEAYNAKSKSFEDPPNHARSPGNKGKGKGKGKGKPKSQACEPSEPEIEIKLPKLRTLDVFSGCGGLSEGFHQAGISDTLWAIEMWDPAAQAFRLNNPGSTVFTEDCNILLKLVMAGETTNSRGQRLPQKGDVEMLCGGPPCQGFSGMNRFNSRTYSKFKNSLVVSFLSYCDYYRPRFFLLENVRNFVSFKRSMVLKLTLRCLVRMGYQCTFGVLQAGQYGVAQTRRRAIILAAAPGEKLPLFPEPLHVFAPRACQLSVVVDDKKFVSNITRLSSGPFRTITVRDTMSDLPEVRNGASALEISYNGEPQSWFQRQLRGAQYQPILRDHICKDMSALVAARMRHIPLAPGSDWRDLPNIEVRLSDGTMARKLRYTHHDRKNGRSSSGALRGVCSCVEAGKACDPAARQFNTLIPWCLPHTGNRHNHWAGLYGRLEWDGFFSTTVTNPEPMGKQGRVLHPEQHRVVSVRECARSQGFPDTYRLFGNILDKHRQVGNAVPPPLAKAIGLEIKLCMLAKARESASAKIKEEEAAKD
Assignment: determine reported pIC50 for the given compounds.
On this scale, pIC50 is minus log10 of a concentration expressed in M (mol/L).

Inquiry: Quick check: pIC50 of COc1cc2c(NC3CCN(C)CC3)cc(C3CCCCC3)nc2cc1OCCCN1CCCC1 ?
Reply text: 6.30

Inquiry: Thanks! And COc1cc2c(NC3CCN(C)CC3)cc(C3=CCOCC3)nc2cc1OCCCN1CCCC1 ?
Reply text: 6.02

Inquiry: Thanks! And Nc1ncn([C@H]2C[C@H](O)[C@@H](CO)O2)c(=O)n1 ?
Reply text: 7.52

Inquiry: Thanks! And COc1cc2c(NC3CCN(C)CC3)cc(C3CCC(C)O3)nc2cc1OCCCN1CCCC1 (stereo not given) ?
Reply text: 5.86

Inquiry: Thanks! And COc1cc2c(NC3CCN(C)CC3)cc(N3CCN(C)CC3)nc2cc1OCCCN1CCCC1 ?
Reply text: 6.02

Inquiry: Thanks! And COc1cc2c(NC3CCN(C)CC3)cc(-c3ccc(-c4ccccc4)o3)nc2cc1OCCCN1CCCC1 ?
Reply text: 5.98

Inquiry: Thanks! And COc1cc2c(NC3CCN(C(C)C)CC3)cc(-c3ccc(C)o3)nc2cc1OCCCN1CCCC1 ?
Reply text: 6.64

Inquiry: Thanks! And COc1cc2c(NC3CCNCC3)cc(-c3ccc(C)o3)nc2cc1OCCCN1CCCC1 ?
Reply text: 6.86

Inquiry: Thanks! And COc1cc2c(NC3CCN(C)CC3)nc(-c3ccc(C)o3)nc2cc1OCCCN1CCCC1 ?
Reply text: 5.65

Inquiry: Thanks! And COc1cc2c(NC3CCN(C)CC3)cc(-c3ccoc3)nc2cc1OCCCN1CCCC1 ?
Reply text: 6.01
